test system: p-ERK; assay: Cell p-ERK assay (HTRF, Advance ERK phospho-T202/Y204 kit) in AsPC-1 cells; type: cell-based; conditions: AsPC-1, human pancreatic cancer cell strain, KRAS G12D mutation; 3 h compound incubation
pIC50: −log10 of the molar value.

COMPOUND	pIC50
CCn1c(F)c2c(c1-c1cc(N3CCN(C)CC3)cnc1C(C)OC)CC(C)(C)COC(=O)C1CCCN(N1)C(=O)C(NC(=O)C1C(C)C1C)Cc1nc(cs1)C=C2 (stereo not shown)	8.84

* * *

tested on: NCI-H441 cells; experiment: 3D cell proliferation assay (CellTiter Glo-3D) in NCI-H441 cells; assay type: cell-based; details: Homo sapiens, NCI-H441, 120 h, NCI-H441, human lung cancer cell strain, KRAS G12V mutation; 3D culture, 2% FBS, 5 days; read-out: H441 AP IC50
IC50: recorded values

COMPOUND	ASSAY_SYSTEM	UNIT_STRING	IC50
CO[C@@H](C)c1ncc(C#CCN2CCS(=O)(=O)CC2)cc1-c1c2c(nn1C(C)C)/C=C/c1csc(n1)C[C@H](NC(=O)[C@H]1[C@H](C)[C@@H]1C)C(=O)N1CCC[C@H](N1)C(=O)OCC(C)(C)C2 (atropisomer, axis not shown) [Compound Z15A]	NCI-H441 cells	nM	7.63
CCn1cc2c(c1-c1cc(C#CCN3CCC(C#N)(CO)CC3)cnc1[C@H](C)OC)CC(C)(C)COC(=O)[C@@H]1CCCN(N1)C(=O)[C@@H](NC(=O)[C@H]1[C@H](C)[C@@H]1C)Cc1nc(cs1)/C=C/2 (atropisomer, axis not shown; (Ra))	NCI-H441 cells	nM	0.11
CO[C@@H](C)c1ncc(C#CCN2CCC(C#N)(CN)CC2)cc1-c1c2c(nn1C(C)C)/C=C/c1csc(n1)C[C@H](NC(=O)[C@H]1[C@H](C)[C@@H]1C)C(=O)N1CCC[C@H](N1)C(=O)OCC(C)(C)C2 (atropisomer, axis not shown; (Ra))	NCI-H441 cells	nM	4.56

* * *

Test system: NCI-H441 cells
Experiment: 3D cell proliferation assay (CellTiter Glo-3D) in NCI-H441 cells
Format: cell-based
Details: Homo sapiens, NCI-H441, 120 h, NCI-H441, human lung cancer cell strain, KRAS G12V mutation; 3D culture, 2% FBS, 5 days; read-out: H441 AP IC50
From the text: […] The cells were digested with trypsin (containing EDTA), collected in their respective low-serum complete media containing 2% FBS (for MIA Paca-2 cell culture: DMEM + 2% FBS + 0.5% Horse serum + 1% PS), and counted. […]
Quick reference: IC50 of the listed items.

COMPOUND	IC50, nM
CCn1cc2c(c1-c1cc(N3CCN(C)CC3)cnc1[C@H](C)OC)CC(C)(C)COC(=O)[C@@H]1CCCN(N1)C(=O)[C@@H](NC(=O)[C@H]1[C@H](C)[C@@H]1C)Cc1nc(cs1)/C=C/2 (atropisomer, axis not shown) [Compound Z8A]	3.98
CCn1nc2c(c1-c1cc(C#CCN3CCS(=O)(=O)CC3)cnc1C(C)OC)CC(C)(C)COC(=O)C1CCCN(N1)C(=O)C(NC(=O)C(C(C)C)N(C)C(=O)Cn1ccc3ccccc31)Cc1nc(cs1)C=C2 (single isomer, unassigned)	240
CCn1nc2c(c1-c1cc(C#CCN3CCS(=O)(=O)CC3)cnc1[C@H](C)OC)CC(C)(C)COC(=O)[C@@H]1CCCN(N1)C(=O)[C@@H](NC(=O)[C@@H](NC(=O)OC(C)(C)C)C(C)C)Cc1nc(cs1)/C=C/2 (atropisomer, axis not shown; (Ra))	115
CCn1c(F)c2c(c1-c1cc(C#CCN3CCC(C#N)(CN)CC3)cnc1[C@H](C)OC)CC(C)(C)COC(=O)[C@@H]1CCCN(N1)C(=O)[C@@H](NC(=O)[C@H]1[C@H](C)[C@@H]1C)Cc1nc(cs1)/C=C/2 (atropisomer, axis not shown; (Ra))	0.2
